// ratio to parent lookup, one value per entry
B1: H2-Kb / H5 (parent)
chain 1: GEQVEQRPPHLSVREGDSAVIICTYTDPNSYYFFWYKQEPGAGLQLLMKVFSSTEINEGQGFTVLLNKKDKQLSLNLTAAHPGDSAVYFCAVSNYGSSGNKLIFGIGTLLSVKP
chain 2: EAAVTQSPRNKVAVTGGKVTLSCNQTNNHNNMYWYRQDTGHGLRLIHYSYGAGSTEKGDIPDGYKASRPSQENFSLILELATPSQTSVYFCASGDRERDTQYFGPGTRLLVL
chain 3: not shown
chain 4: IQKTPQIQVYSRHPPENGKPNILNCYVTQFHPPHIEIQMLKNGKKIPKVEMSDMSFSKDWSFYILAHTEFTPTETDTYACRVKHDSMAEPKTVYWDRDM
chain 5: SIINFEKL

- Variants of: B1
- method-description: % of reporter cells activated (NFAT-GFP), raw; further: test concentration or dose not given here
- assay-setup: with H5; scale: % of reporter cells activated
Lab note: write the figure by itself, no unit.

[
  {
    "mutation-key": "chain 5 I3Y",
    "ratio to parent": 0.321
  },
  {
    "mutation-key": "chain 5 F5G",
    "ratio to parent": 0.316
  }
]

Alright, here's another variant for you.
Lab book: ratio to parent of chain 5 I2K noted as 0.388

These entries and their values trace back to paper PMC11480844.
